tested on: M. tuberculosis H37Rv growth inhibition with meropenem; assay: dose response, H37Rv, with and without meropenem (AID 434987);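 further: growth over 7 days at 37 °C before Alamar Blue read on day 9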; conditions: M. tuberculosis H37Rv growth inhibition; measured here: IC50 without meropenem
pIC50: −log10 of the molar value.
quantity.measured: pIC50

Example compounds with recorded pIC50:
| smiles.code | pIC50 |
| --- | --- |
| Cc1nc(SCC(=O)NCc2ccco2)c2c3c(sc2n1)CCCC3 | < 4.00 |
| Cc1ccc(OC(=O)COc2ccccc2)c(-n2nc3ccccc3n2)c1 | < 4.00 |
| COc1cccc(NS(=O)(=O)c2ccc3[nH]cc(C(=O)NCCC(C)C)c(=O)c3c2)c1 | < 4.00 |
| NC(=S)N/N=C/c1ccc([N+](=O)[O-])cc1 | < 4.00 |

Q: Hi! What's the reported pIC50 for COC(=O)c1cc(C)[nH]c2c(C)cc3nc4ccccc4c3c12 on M. tuberculosis H37Rv growth inhibition with meropenem?
Ans: < 4.00

Q: And for CCN(CC(=O)Nc1ccccc1OC)C(=O)c1cc(S(=O)(=O)N2CCCCCC2)ccc1OC ?
Ans: < 4.00

* * *

The following compounds are listed with their measured IC90 values.
system: M. tuberculosis H37Rv growth inhibition with meropenem; test: dose response, H37Rv, with and without meropenem (AID 434987); conditions: measured here: IC90 with meropenem;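 further: growth over 7 days at 37 °C before Alamar Blue read on day 9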

Example compounds with recorded IC90:
| smiles.code | IC90 |
| --- | --- |
| CSc1ncnc2c1ccn2CC(=O)Nc1ccc(C)c(C)c1 | > 25 µM |
| Cc1cc(NC(=O)c2ccc3c(c2)OCCO3)ccc1NC(=O)c1cc2ccccc2o1 | > 100 µM |

// next entry
Q: Give the measured IC90 of CSc1ccccc1NC(=O)c1c(Br)cnn1C .
Ans: > 100 µM

* * *

test system: M. tuberculosis H37Rv growth inhibition with meropenem; experiment: dose response, H37Rv, with and without meropenem (AID 434987);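 further: growth over 7 days at 37 °C before Alamar Blue read on day 9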; conditions: M. tuberculosis H37Rv growth inhibition; measured here: IC50 without meropenem
pIC50: −log10 of the molar value.
quantity.measured: pIC50

Example compounds with recorded pIC50:
| smiles.code | assay.system | pIC50 |
| --- | --- | --- |
| COc1ccc(-c2c(C(F)(F)F)oc3cc(OCC(=O)Nc4ccccc4C(F)(F)F)ccc3c2=O)cc1OC | M. tuberculosis H37Rv growth inhibition with meropenem | < 4.00 |
| O=C(Nc1ccccc1Br)c1cccc2ccccc12 | M. tuberculosis H37Rv growth inhibition with meropenem | < 4.00 |

Q: Hi! What's the reported pIC50 for O=C(Oc1c(-c2ccccc2Cl)oc2ccccc2c1=O)c1ccc(Cl)cc1 on M. tuberculosis H37Rv growth inhibition with meropenem?
Ans: 4.32

Q: And for Nc1ncnc2c1c(-c1ccc(Oc3ccccc3)cc1)cn2C1CCCC1 ?
Ans: 4.58

Q: And for Cc1c(-c2ccncc2)oc2ccc(Br)cc2c1=O ?
Ans: < 4.00

Q: And for Cc1cccnc1NC(=O)c1cc2ccccc2oc1=O ?
Ans: < 4.00

Q: And for CCCCOc1ccccc1NC(=O)c1ccco1 ?
Ans: < 4.00

Q: And for Cc1ccc(NC(=S)Nc2ncccc2C)c(C)c1 ?
Ans: 4.01

* * *

system: M. tuberculosis H37Rv growth inhibition with meropenem; experiment: dose response, H37Rv, with and without meropenem (AID 434987);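 further: growth over 7 days at 37 °C before Alamar Blue read on day 9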; conditions: M. tuberculosis H37Rv growth inhibition; measured here: IC50 without meropenem
quantity.measured: pIC50
Note on pIC50: it is the negative log10 of concentration, concentration in mol/L.

Example compounds with recorded pIC50:
| compound | assay.system | numeric.readout |
| --- | --- | --- |
| CCCC(C)NC(=O)c1ccc(OCc2ccc(Cl)cc2)c(OC)c1 (stereo unspecified) | M. tuberculosis H37Rv growth inhibition with meropenem | 4.44 |
| CSc1ccccc1NC(=O)c1c(Br)cnn1C | M. tuberculosis H37Rv growth inhibition with meropenem | 4.08 |
| CCOC(=O)c1sc(Nc2nc3c(OC)cccc3s2)cc1C | M. tuberculosis H37Rv growth inhibition with meropenem | 4.05 |
| COc1cc(NC(=O)c2ccccc2Cl)ccc1NC(=O)c1ccco1 | M. tuberculosis H37Rv growth inhibition with meropenem | 4.48 |

// next entry
Q: Give the measured pIC50 of CCC(CC)c1nnc(NC(=O)c2ccc(N3CCCCC3)c([N+](=O)[O-])c2)s1 .
Ans: 4.12
